- System: Lolium
- EXPERIMENT_SUMMARY: Herbicidal pre-emergence action (Example L)
- Type: in vivo
- CONDITIONS: greenhouse, 320 g of a.i./ha, 3 weeks
Attribute: herbicidal effect in percent, Lolium
Number in %, nothing else.

MOLECULE	herbicidal effect in percent, Lolium (%)
CCc1cc(C)cc(Br)c1C1=C(O)C2(CCC(OC)CC2)NC1=O (single isomer, unassigned) [Example I-a-3]	80
CCOC(=O)OC1=C(c2c(Cl)cc(C)cc2CC)C(=O)NC12CCC(OC)CC2 (single isomer, unassigned) [Example I-c-4]	80
CCOC(=O)OC1=C(c2c(Br)cc(C)cc2CC)C(=O)NC12CCC(OC)CC2 (single isomer, unassigned) [I-c-3]	100
CCc1cc(C)cc(Br)c1C1=C(OC(=O)COC)C2(CCC(OC)CC2)NC1=O (single isomer, unassigned) [Example I-b-5]	100

I would be grateful if you could share the reported herbicidal effect in percent, Lolium for CCc1cc(C)cc(Br)c1C1=C(O)C2(CCOCC2)NC1=O [Example I-a-1] .
80

###

- Tested on: Setaria
- EXPERIMENT_SUMMARY: Herbicidal post-emergence action (Example M)
- Type: in vivo
- CONDITIONS: greenhouse, 320 g of a.i./ha, about 3 weeks
MEASURED_QUANTITY: herbicidal effect in percent, Setaria (%)
Numbers only here, please. The scale is %.

Guide cases for herbicidal effect in percent, Setaria, answers given:
MOLECULE	SYSTEM_UNDER_TEST	herbicidal effect in percent, Setaria / %
CCc1cc(C)cc(Br)c1C1=C(O)C2(CCCCC2)NC1=O	Setaria	100
CCOC(=O)OC1=C(c2c(Cl)cc(C)cc2CC)C(=O)NC12CCC(OC)CC2 (single isomer, unassigned)	Setaria	100
CCc1cc(C)cc(Br)c1C1=C(OC(=O)C(C)C)C2(CCCCC2)NC1=O	Setaria	100

# next molecule below
Reported herbicidal effect in percent, Setaria, molecule CCc1cc(C)cc(Br)c1C1=C(OC(=O)COC)C2(CCC(OC)CC2)NC1=O (single isomer, unassigned) : ____
100

###

Consider the following compounds and their measured summer wheat observed (%) readings.
- Tested on: summer wheat
- EXPERIMENT_SUMMARY: Herbicidal post-emergence action, vessel trials with cereals in the greenhouse, use of safeners (Example N)
- Type: in vivo
- CONDITIONS: 12.5 g of a.i./ha, without safener
Express your answer in %, writing the number without its unit.

COMPOUND	summer wheat observed (%)
CCc1cc(C)cc(Br)c1C1=C(OC(=O)COC)C2(CCCCC2)NC1=O	20
CCOC(=O)OC1=C(c2c(Cl)cc(C)cc2CC)C(=O)NC12CCC(OC)CC2 (single isomer, unassigned)	60
CCc1cc(C)cc(Cl)c1C1=C(O)C2(CCC(OC)CC2)NC1=O (single isomer, unassigned)	50

Now let's try a different one.
What value of measured summer wheat observed (%) is listed for CCc1cc(C)cc(Br)c1C1=C(OC(=O)C(C)C)C2(CCCCC2)NC1=O ?
10

###

- Test system: summer wheat
- EXPERIMENT_SUMMARY: Herbicidal post-emergence action, vessel trials with cereals in the greenhouse, use of safeners (Example N)
- Type: in vivo
- CONDITIONS: 25 g of a.i./ha, without safener
summer wheat observed (%) values, listed per item
Give the figure together with its unit, number first.

Below are worked cases with known answers.
COMPOUND	MEASURED_QUANTITY	EXPERIMENTAL_RESULT
CCc1cc(C)cc(Br)c1C1=C(OC(=O)COC)C2(CCCCC2)NC1=O	summer wheat observed (%)	70%
CCc1cc(C)cc(Br)c1C1=C(O)C2(CCC(OC)CC2)NC1=O (single isomer, unassigned)	summer wheat observed (%)	60%
CCc1cc(C)cc(Br)c1C1=C(OC(=O)C(C)C)C2(CCCCC2)NC1=O	summer wheat observed (%)	20%

Turning now to a further record.
Give summer wheat summer wheat observed (%) for CCc1cc(C)cc(Cl)c1C1=C(O)C2(CCC(OC)CC2)NC1=O (single isomer, unassigned)
98%

###

Reported herbicidal effect in percent, Setaria values follow for various molecules
- Test system: Setaria
- EXPERIMENT_SUMMARY: Herbicidal post-emergence action (Example M)
- Assay type: in vivo
- CONDITIONS: greenhouse, 320 g of a.i./ha, about 3 weeks
The figure you give is taken to be in %; do not add the unit.

Study these solved cases before continuing.
MOLECULE	VALUE_UNITS	herbicidal effect in percent, Setaria
CCOC(=O)OC1=C(c2c(Br)cc(C)cc2CC)C(=O)NC12CCC(OC)CC2 (single isomer, unassigned) [I-c-3]	%	100
CCOC(=O)OC1=C(c2c(Br)cc(C)cc2CC)C(=O)NC12CCCCC2 [I-c-2]	%	80
CCc1cc(C)cc(Br)c1C1=C(O)C2(CCC(OC)CC2)NC1=O (single isomer, unassigned) [Example I-a-3]	%	100
CCc1cc(C)cc(Br)c1C1=C(OC(=O)COC)C2(CCCCC2)NC1=O [Example I-b-2]	%	100

Tell me the measured herbicidal effect in percent, Setaria of CCc1cc(C)cc(Br)c1C1=C(OC(=O)C(C)(C)C)C2(CCCCC2)NC1=O [I-b-4] , please.
90

Moving on to the next molecule: CCc1cc(C)cc(Br)c1C1=C(O)C2(CCOCC2)NC1=O [Example I-a-1]
80

Measured values drawn from patent US20070129252A1 for this set.
